- procedureDetails: small-molecule microarray binders of probe aNog, primary screen, biochemical, biotinylated probe, 635/667 nm fluorescence (AID 1115);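 also: probe is biotinylated aNog protein used at 0.15 µg/mL for 1 h at 4 C; z-score combines 667 nm fluorescence of each spot with its signal to noise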
- conditions: higher = more signal
Binary classification by composite z-score, with -0.1 as an inclusive lower bound for Fulfilled; all other cases are Not fulfilled.

Previously resolved entries follow.
Evaluate CCOC(=O)[C@H](Cc1ccccc1)NC(=O)CCC1CC(OC(=O)NCCc2ccc(F)cc2)CC2(CCCC(COC(=O)NCCCN3CCCC3=O)O2)O1 (some centres undefined) : composite z-score at minimum -0.1?
Fulfilled

Evaluate O=C1C[C@@H](O)[C@@H](O)[C@@H]2[C@@H]3C(=O)N(C[C@@H]4CCCO4)C(=O)[C@@H]3CC[C@@H]12 : composite z-score at minimum -0.1?
Not fulfilled

Evaluate CCOC(=O)[C@H](CC(C)C)NC(=O)CCC1CC(OC(=O)NCc2cccc3ccccc23)CC2(CCCC(COC(=O)NCC3CCCCC3)O2)O1 (some centres undefined) : composite z-score at minimum -0.1?
Not fulfilled

Evaluate C[C@H]1CC[C@H]2C(=O)OC(CO)CN2[C@@H]1c1ccc(Br)cc1 (some centres undefined) : composite z-score at minimum -0.1?
Not fulfilled

Evaluate CC=CC1=C(CO)C(=O)[C@@H]2O[C@@H]2C1=O : composite z-score at minimum -0.1?
Fulfilled

Evaluate O=C1CCCC=C1C(O)CCOC(c1ccccc1)(c1ccccc1)c1ccccc1 (centres undefined) : composite z-score at minimum -0.1?
Fulfilled

Evaluate CC(C)=NO[C@H](C)c1cn([C@H](CO)Cc2ccccc2)nn1 : composite z-score at minimum -0.1?
Fulfilled

Evaluate COc1ccc(COC(=O)NN=C2C[C@@H](O)[C@@H](O)[C@@H]3[C@@H]4C(=O)N(c5ccc(F)cc5F)C(=O)[C@@H]4CC[C@H]23)cc1 : composite z-score at minimum -0.1?
Not fulfilled

Evaluate C[C@@H](c1ccccc1)N1C(=O)[C@H]2[C@H]3[C@H](O)[C@H](O)CC(=NO[C@@H]4O[C@H](CO)[C@@H](O)[C@H](O)[C@H]4O)[C@@H]3CC[C@H]2C1=O : composite z-score at minimum -0.1?
Fulfilled

Evaluate CO[C@H]1COC(=O)CC=C[C@H](C)COC(=O)[C@@H](C)NC(=O)CC=C[C@@H]1C : composite z-score at minimum -0.1?
Not fulfilled

---
Evaluate COC(=O)[C@H]1[C@@H](O)[C@@]2(O)c3ccccc3O[C@@]2(c2ccccc2)[C@@H]1c1ccccc1 : composite z-score at minimum -0.1?
Not fulfilled

Evaluate COC(=O)[C@@H]1CC[C@H](C)[C@@H](c2ccc(C)cc2)N1C(=O)c1ccc(C=NOCC[C@@H]2C=C[C@H](OC(C)=O)[C@@H](COC(C)=O)O2)cc1 : composite z-score at minimum -0.1?
Not fulfilled

Evaluate CC(C)[C@@H](OCc1ccccc1)[C@H](C)C=NOC[C@@H](O)COCc1ccco1 : composite z-score at minimum -0.1?
Not fulfilled

Evaluate O=C1[C@H]2[C@H]3[C@H](O)[C@H](O)CC(=NOC[C@@H](O)COCc4ccco4)[C@H]3CC[C@H]2C(=O)N1c1ccc(F)cc1F : composite z-score at minimum -0.1?
Fulfilled
